Assay: AUC (0 to infinity) in CD1 mouse brain at 12.92 mg/kg, ig measured up to 240 mins by LC/ESI-MS/MS analysis
Format: ADME, organism-based
Parameters: dose 12.92 mg/kg, route […], time infinity
Conditions: po

Smiles string: Cc1cccc(C)c1OCCOCCN[C@H](C)CO.Cl
AUC(0-inf): 1220 µg·h/mL

###

System: Mus musculus
Assay: Neurotoxicity in mouse at 100 mg/kg, ip after 0.5 hrs by rotarod test
Format: toxicity, organism-based
Conditions: in vivo
Measured metric: Activity

Molecule: Cc1cc(C)c(OCCNC(C)CO)c(C)c1 (configuration not stated)
Reported value: Toxic

Molecule: Cc1cccc(C)c1OCCOCCN[C@@H]1CCCC[C@H]1O (racemic)
Reported value: Non-toxic

Molecule: Cc1cc(C)c(OCCN[C@@H]2CCCC[C@H]2O)c(C)c1 (racemic)
Reported value: Toxic

Molecule: CCC(CO)NCCCOc1cccc(C)c1C (configuration not stated)
Reported value: Toxic

Molecule: Cc1cccc(OCCN[C@@H]2CCCC[C@H]2O)c1C (racemic)
Reported value: Toxic

Molecule: CCC(CO)NCCOc1cccc(C)c1C (configuration not stated)
Reported value: Toxic

Molecule: Cc1cccc(OCCCNC(C)CO)c1C (configuration not stated)
Reported value: Toxic

Molecule: Cc1cccc(C)c1OCCOCCN[C@@H](C)CO.Cl
Reported value: Non-toxic

Molecule: Cc1cccc(C)c1OCCOCCN[C@H](C)CO.Cl
Reported value: Toxic

Molecule: Cc1cccc(C)c1OCCOCCNC(C)CO (configuration not stated)
Reported value: Toxic

Molecule: Cc1cccc(C)c1OCCOCCN[C@H](C)CO
Reported value: Toxic

Molecule: Cc1cccc(OCCOCCNC(C)CO)c1C (configuration not stated)
Reported value: Toxic

Molecule: Cc1cc(C)c(OCCN[C@H](C)CO)c(C)c1
Reported value: Toxic

Molecule: Cc1cccc(C)c1OCCOCCN[C@@H](C)CO
Reported value: Toxic

Molecule: CC[C@@H](CO)NCCOCCOc1c(C)cccc1C
Reported value: Toxic

Molecule: CCC(CO)NCCOCCOc1c(C)cccc1C (configuration not stated)
Reported value: Toxic

Molecule: Cc1cc(C)c(OCCNCC(O)c2ccccc2)c(C)c1 (configuration not stated)
Reported value: Non-toxic

###

System: Vibrio harveyi
Test: Mutagenicity in Vibrio harveyi BB7M assessed as number of colonies after 48 hrs (reference value: 13 to 14 no_unit)
Format: ADME, organism-based
Details: in vivo
Measured metric: Activity

Compound: Cc1cccc(OCCOCCN[C@H]2CC[C@H](O)CC2)c1C
Assay system: Vibrio harveyi
Measured metric: Activity
Reported value: 25
--
Compound: Cc1cc(C)c(OCCOCCN[C@@H]2CCCC[C@H]2O)c(C)c1 (racemic)
Assay system: Vibrio harveyi
Measured metric: Activity
Reported value: 10
--
Compound: Cc1cc(C)c(OCCOCCNC(C)CO)c(C)c1 (stereo unspecified)
Assay system: Vibrio harveyi
Measured metric: Activity
Reported value: 19
--
Compound: Cc1ccc(OCCN[C@H](C)CO)c(C)c1
Assay system: Vibrio harveyi
Measured metric: Activity
Reported value: 26
--
Compound: Cc1cccc(C)c1OCCOCCN[C@H](C)CO.Cl
Assay system: Vibrio harveyi
Measured metric: Activity
Reported value: 22
--
Compound: Cc1cccc(C)c1OCCOCCN[C@@H]1CCCC[C@H]1O (racemic)
Assay system: Vibrio harveyi
Measured metric: Activity
Reported value: 26
--
Compound: CC[C@@H](CO)NCCOCCOc1c(C)cccc1C
Assay system: Vibrio harveyi
Measured metric: Activity
Reported value: 26
--
Compound: Cc1cccc(C)c1OCCOCCN[C@@H](C)CO
Assay system: Vibrio harveyi
Measured metric: Activity
Reported value: 26
--
Compound: Cc1cccc(C)c1OCCOCCNC(C)CO (stereo unspecified)
Assay system: Vibrio harveyi
Measured metric: Activity
Reported value: 27
--
Compound: CC[C@H](CO)NCCOCCOc1c(C)cccc1C
Assay system: Vibrio harveyi
Measured metric: Activity
Reported value: 20
--
Compound: Cc1cccc(C)c1OCCOCCN1CCC(O)CC1
Assay system: Vibrio harveyi
Measured metric: Activity
Reported value: 18
